Values compiled from paper PMC6268252.

experiment: in vitro; conditions: dog
Recorded endpoint: CC50 (µM)
Answers are plain numbers, in µM.

Cc1oc2nc1C(=O)N[C@@H](C)c1nc(co1)C(=O)NCCCCC(=O)N[C@@H](C(C)C)c1nc-2cs1 | 578
Cc1oc2nc1C(=O)N[C@@H](C)c1nc(co1)C(=O)N[C@@H](CC(C)C)C(=O)N1CCC[C@H]1C(=O)N[C@@H](C(C)C)c1nc-2cs1 [Leucamide A] | 787
Cc1oc2nc1C(=O)N[C@@H](C)c1nc(co1)C(=O)NCCCC(=O)N[C@@H](C(C)C)c1nc-2cs1 | 595

Next compound, CC50 to be filled in.
Query :: In one line, give reported CC50 of the entry `Cc1oc2nc1C(=O)N[C@@H](C)c1nc(co1)C(=O)NCCCCCC(=O)N[C@@H](C(C)C)c1nc-2cs1` .
Result :: 374

* * *

assay: in vitro; conditions: dog
Hi there, I'd appreciate the recorded CC50 for every entry that follows.

Would you be so kind as to report CC50 for each listed record?
1. Cc1oc2nc1C(=O)N[C@@H](C)c1nc(co1)C(=O)NCC(=O)N[C@@H](C(C)C)c1nc-2cs1 [Compound 2]
2. NC(=O)c1ncn([C@@H]2O[C@H](CO)[C@@H](O)[C@H]2O)n1 [Ribavirin, reference compound]
3. Cc1oc2nc1C(=O)N[C@@H](C)c1nc(co1)C(=O)NCCC(=O)N[C@@H](C(C)C)c1nc-2cs1 [Compound 3]

Result ::
1. > 273 µM
2. > 8200 µM
3. > 265 µM
